- target.or.system: Beta-3 adrenergic receptor (Homo sapiens)
- Sequence (P13945 whole entry, looked up): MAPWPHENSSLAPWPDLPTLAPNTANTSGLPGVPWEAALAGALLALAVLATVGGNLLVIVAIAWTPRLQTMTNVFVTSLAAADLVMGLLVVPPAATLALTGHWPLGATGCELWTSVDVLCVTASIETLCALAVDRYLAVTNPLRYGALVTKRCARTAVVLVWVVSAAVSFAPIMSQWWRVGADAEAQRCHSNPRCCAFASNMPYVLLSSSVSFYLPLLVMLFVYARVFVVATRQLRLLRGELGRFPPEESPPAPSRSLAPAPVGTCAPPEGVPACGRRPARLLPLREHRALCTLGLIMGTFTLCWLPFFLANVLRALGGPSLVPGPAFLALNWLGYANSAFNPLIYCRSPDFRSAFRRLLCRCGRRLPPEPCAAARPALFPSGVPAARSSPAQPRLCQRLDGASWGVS
- assay.procedure: Agonist activity at human beta-3 adrenergic receptor expressed in CHO cells assessed as increase in intracellular cAMP accumulation at 10^-10 to 10^-5 M after 30 mins by time-resolved fluorescence assay relative to R-(-)isoproterenol
- Format: functional, cell-based
experimental.endpoint: Activity (%)
The reply should be a number in %, with the unit left off.

1. Nc1nc2c(s1)CC[C@H]2C(=O)Nc1ccc(C[C@@H]2CC[C@H]([C@H](O)c3cccnc3)N2)cc1	101

Q: Please look up its Activity: `CCc1nc2c(s1)CC[C@H]2C(=O)Nc1ccc(C[C@@H]2CC[C@H]([C@H](O)c3ccccc3)N2)cc1`
A: 37

Q: Please look up its Activity: `Nc1nc2c(s1)CC[C@H]2C(=O)Nc1ccc(C[C@@H]2CC[C@H]([C@H](O)c3ccccc3)N2)cc1`
A: 91

Q: Please look up its Activity: `Cc1nc2c(s1)CC[C@H]2C(=O)Nc1ccc(C[C@@H]2CC[C@H]([C@H](O)c3ccccc3)N2)cc1`
A: 96

Q: Please look up its Activity: `Nc1nc2c(s1)CC[C@H]2C(=O)Nc1ccc(C[C@@H]2CC[C@H]([C@H](O)c3ccc(F)cc3)N2)cc1`
A: 72

Q: Please look up its Activity: `Nc1nc2c(s1)CCC[C@H]2C(=O)Nc1ccc(C[C@@H]2CC[C@H]([C@H](O)c3ccccc3)N2)cc1`
A: 103

These measurements were taken from ChEMBL document CHEMBL3124772.
